System: hTERT-HMEC;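 note: secreted proteins added to cultured cells, EdU pulse at the end, nuclei found by Hoechst imaging, EdU status from nuclear versus surrounding ring intensity ratio, PBS as neutral control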
Protocol description: percentage of EdU-negative (G0-arrested) nuclei per well, 72 h; higher = more G0 arrest
Condition details: protein concentration 0.225 µM; reference: sequence is the full UniProt precursor, the tested protein was the secreted form or ectodomain
Threshold check on percentage of EdU-negative: at or above 6% gives YES, strictly below gives NO.

Worked examples follow.
MGPLPVCLPIMLLLLLPSLLLLLLLPGPGSGEASRILRVHRRGILELAGTVGCVGPRTPIAYMKYGCFCGLGGHGQPRDAIDWCCHGHDCCYTRAEEAGCSPKTERYSWQCVNQSVLCGPAENKCQELLCKCDQEIANCLAQTEYNLKYLFYPQFLCEPDSPKCD    YES
MGVCGYLFLPWKCLVVVSLRLLFLVPTGVPVRSGDATFPKAMDNVTVRQGESATLRCTIDDRVTRVAWLNRSTILYAGNDKWSIDPRVIILVNTPTQYSIMIQNVDVYDEGPYTCSVQTDNHPKTSRVHLIVQVPPQIMNISSDITVNEGSSVTLLCLAIGRPEPTVTWRHLSVKEGQGFVSEDEYLEISDIKRDQSGEYECSALNDVAAPDVRKVKITVNYPPYISKAKNTGVSVGQKGILSCEASAVPMAEFQWFKEETRLATGLDGMRIENKGRMSTLTFFNVSEKDYGNYTCVATNKLGNTNASITLYGPGAVIDGVNSASRALACLWLSGTLLAHFFIKF    NO
MPMASPQTLVLYLLVLAVTEAWGQEAVIPGCHLHPFNVTVRSDRQGTCQGSHVAQACVGHCESSAFPSRYSVLVASGYRHNITSVSQCCTISGLKKVKVQLQCVGSRREELEIFTARACQCDMCRLSRY [Q96T91]    NO
MRLSWFRVLTVLSICLSAVATATGAEGKRKLQIGVKKRVDHCPIKSRKGDVLHMHYTGKLEDGTEFDSSLPQNQPFVFSLGTGQVIKGWDQGLLGMCEGEKRKLVIPSELGYGERGAPPKIPGGATLVFEVELLKIERRTEL    YES
MICLVLTIFANLFPAACTGAHERTFLAVKPDGVQRRLVGEIVRRFERKGFKLVALKLVQASEELLREHYAELRERPFYGRLVKYMASGPVVAMVWQGLDVVRTSRALIGATNPADAPPGTIRGDFCIEVGKNLIHGSDSVESARREIALWFRADELLCWEDSAGHWLYE    NO

Request: Is percentage of EdU-negative at least 6%? Consider MQRVSGLLSWTLSRVLWLSGLSEPGAARQPRIMEEKALEVYDLIRTIRDPEKPNTLEELEVVSESCVEVQEINEEEYLVIIRFTPTVPHCSLATLIGLCLRVKLQRCLPFKHKLEIYISEGTHSTEEDINKQINDKERVAAAMENPNLREIVEQCVLEPD [Q9H5X1]
Response: NO
